- TARGET_ENTITY: T1, B3GNT2 (Homo sapiens, UniProt Q9NY97)
- T1 construct: The respective ORFs of candidate genes [CD274 (NM_014143), MCL1 (NM_021960), JUNB (NM_002229), and B3GNT2 (NM_006577)] were synthesized; expressed in transfected cells; host or cells: A375 melanoma cells (lentiviral ORF overexpression)
- T1 sequence (Q9NY97 1-397): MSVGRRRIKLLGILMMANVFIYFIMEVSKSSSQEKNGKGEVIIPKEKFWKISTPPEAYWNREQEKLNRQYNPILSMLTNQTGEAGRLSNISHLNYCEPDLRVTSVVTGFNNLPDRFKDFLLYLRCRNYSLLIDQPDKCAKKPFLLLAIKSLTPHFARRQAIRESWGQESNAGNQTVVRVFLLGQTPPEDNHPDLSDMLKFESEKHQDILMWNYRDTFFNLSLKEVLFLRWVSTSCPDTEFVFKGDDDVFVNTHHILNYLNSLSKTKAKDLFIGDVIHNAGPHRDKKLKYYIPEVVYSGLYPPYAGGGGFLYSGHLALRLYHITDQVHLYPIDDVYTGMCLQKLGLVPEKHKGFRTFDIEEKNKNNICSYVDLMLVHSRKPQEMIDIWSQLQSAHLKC
- PROTOCOL_SUMMARY: Co-IP of FLAG-tagged B3GNT2 followed by mass spectrometry
- Type: cell-based
- STATED_CONDITIONS: Co-IP followed by mass spectrometry of B3GNT2; N-term tag, IgG pull-down
For each entry below, report its N-term IgG value.
Form: value (number only, do not type unit).

N-term IgG reported for this molecule ARG1 (protein) MSAKSRTIGIIGAPFSKGQPRGGVEEGPTVLRKAGLLEKLKEQECDVKDYGDLPFADIPNDSPFQIVKNPRSVGKASEQLAGKVAEVKKNGRISLVLGGDHSLAIGSISGHARVHPDLGVIWVDAHTDINTPLTTTSGNLHGQPVSFLLKELKGKIPDVPGFSWVTPCISAKDIVYIGLRDVDPGEHYILKTLGIKYFSMTEVDRLGIGKVMEETLSYLLGRKKRPIHLSFDVDGLDPSFTPATGTPVVGGLTYREGLYITEEIYKTGLLSGLDIMEVNPSLGKTPEEVTRTVNTAVAITLACFGLAREGNHKPIDYLNPPK : 4

N-term IgG reported for this molecule TAGLN (protein) ANKGPSYGMSREVQSKIEKKYDEELEERLVEWIIVQCGPDVGRPDRGRLGFQVWLKNGVILSKLVNSLYPDGSKPVKVPENPPSMVFKQMEQVAQFLKAAEDYGVIKTDMFQTVDLFEGKDMAAVQRTLMALGSLAVTKNDGHYRGDPNWFMKKAQEHKREFTESQLQEGKHVIGLQMGSNRGASQAGMTGYGRPRQIIS : 0

N-term IgG reported for this molecule MTCH2 (protein, UniProt Q9Y6C9 2-303, looked up) Mitochondrial carrier homolog …: ADAASQVLLGSGLTILSQPLMYVKVLIQVGYEPLPPTIGRNIFGRQVCQLPGLFSYAQHIASIDGRRGLFTGLTPRLCSGVLGTVVHGKVLQHYQESDKGEELGPGNVQKEVSSSFDHVIKETTREMIARSAATLITHPFHVITLRSMVQFIGRESKYCGLCDSIITIYREEGILGFFAGLVPRLLGDILSLWLCNSLAYLVNTYALDSGVSTMNEMKSYSQAVTGFFASMLTYPFVLVSNLMAVNNCGLAGGCPPYSPIYTSWIDCWCMLQKEGNMSRGNSLFFRKVPFGKTYCCDLKMLI : 0

N-term IgG reported for this molecule CHCHD3 (protein) GGTTSTRRVTFEADENENITVVKGIRLSENVIDRMKESSPSGSKSQRYSGAYGASVSDEELKRRVAEELALEQAKKESEDQKRLKQAKELDRERAAANEQLTRAILRERICSEEERAKAKHLARQLEEKDRVLKKQDAFYKEQLARLEERSSEFYRVTTEQYQKAAEEVEAKFKRYESHPVCADLQAKILQCYRENTHQTLKCSALATQYMHCVNHAKQSMLEKGG : 10

N-term IgG reported for this molecule NAP1L1 (protein) ADIDNKEQSELDQDLDDVEEVEEEETGEETKLKARQLTVQMMQNPQILAALQERLDGLVETPTGYIESLPRVVKRRVNALKNLQVKCAQIEAKFYEEVHDLERKYAVLYQPLFDKRFEIINAIYEPTEEECEWKPDEEDEISEELKEKAKIEDEKKDEEKEDPKGIPEFWLTVFKNVDLLSDMVQEHDEPILKHLKDIKVKFSDAGQPMSFVLEFHFEPNEYFTNEVLTKTYRMRSEPDDSDPFSFDGPEIMGCTGCQIDWKKGKNVTLKTIKKKQKHKGRGTVRTVTKTVSNDSFFNFFAPPEVPESGDLDDDAEAILAADFEIGHFLRERIIPRSVLYFTGEAIEDDDDDYDEEGEEADEEGEEEGDEENDPDYDPKKDQNPAEC : 0

N-term IgG reported for this molecule TIMP3 (protein) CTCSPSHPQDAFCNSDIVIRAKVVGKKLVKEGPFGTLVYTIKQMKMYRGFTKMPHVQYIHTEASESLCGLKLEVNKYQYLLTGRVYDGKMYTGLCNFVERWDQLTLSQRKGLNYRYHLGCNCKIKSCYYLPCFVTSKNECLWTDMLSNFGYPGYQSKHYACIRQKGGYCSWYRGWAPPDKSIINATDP : 0

N-term IgG reported for this molecule SRP14 (protein) VLLESEQFLTELTRLFQKCRTSGSVYITLKKYDGRTKPIPKKGTVEGFEPADNKCLLRATDGKKKISTVVSSKEVNKFQMAYSNLLRANMDGLKKRDKKNKTKKTKAAAAAAAAAPAAAATAPTTAATTAATAAQ : 0

N-term IgG reported for this molecule GGCT (protein) MANSGCKDVTGPDEESFLYFAYGSNLLTERIHLRNPSAAFFCVARLQDFKLDFGNSQGKTSQTWHGGIATIFQSPGDEVWGVVWKMNKSNLNSLDEQEGVKSGMYVVIEVKVATQEGKEITCRSYLMTNYESAPPSPQYKKIICMGAKENGLPLEYQEKLKAIEPNDYTGKVSEEIEDIIKKGETQTL : 0

N-term IgG reported for this molecule SERPINB3 (protein) MNSLSEANTKFMFDLFQQFRKSKENNIFYSPISITSALGMVLLGAKDNTAQQIKKVLHFDQVTENTTGKAATYHVDRSGNVHHQFQKLLTEFNKSTDAYELKIANKLFGEKTYLFLQEYLDAIKKFYQTSVESVDFANAPEESRKKINSWVESQTNEKIKNLIPEGNIGSNTTLVLVNAIYFKGQWEKKFNKEDTKEEKFWPNKNTYKSIQMMRQYTSFHFASLEDVQAKVLEIPYKGKDLSMIVLLPNEIDGLQKLEEKLTAEKLMEWTSLQNMRETRVDLHLPRFKVEESYDLKDTLRTMGMVDIFNGDADLSGMTGSRGLVLSGVLHKAFVEVTEEGAEAAAATAVVGFGSSPTSTNEEFHCNHPFLFFIRQNKTNSILFYGRFSSP : 3
